# assay_info: AUC in Sprague-Dawley rat at 30 mg/kg, po dosing of milled material in 0.5% methylcellulose
# Type: ADME, organism-based
# Parameters: dose 30 mg/kg, route oral
# cond: in vivo
outcome_measure: AUC (ng·h/mL)
Numbers only, in ng·h/mL.

Which AUC value is on record for `Cc1c(Oc2ccc(-n3cnnn3)cc2F)ncnc1N1C2CC3CC1CC(C2)N3C(=O)OC1(C)CC1` ?
12500

====

# assay_info: Apparent permeability in MDCK2 cells
# Format: ADME, cell-based, Canis lupus familiaris, MDCK-II
# cond: dog, MDCK
outcome_measure: Papp (×10⁻⁶ cm/s)
Give bare numbers, in ×10⁻⁶ cm/s.

Which Papp value is on record for `Cc1c(Oc2ccc(-n3cnnn3)cc2F)ncnc1N1C2CC3CC1CC(C2)N3C(=O)OC1(C)CC1` ?
3.5

====

# assay_info: Half life in Sprague-Dawley rat at 1 mg/kg, iv
# Assay type: ADME, organism-based
# Parameters: dose 1 mg/kg, route intravenous
# cond: in vivo
outcome_measure: half-life (h)
One number for each entry, in h.

Which half-life value is on record for `Cc1c(Oc2ccc(-n3cnnn3)cc2F)ncnc1N1C2CC3CC1CC(C2)N3C(=O)OC1(C)CC1` ?
4.34

====

# assay_info: Clearance in Beagle dog at 1 mg/kg, iv
# Format: ADME, organism-based, Canis lupus familiaris
# Set-up: dose 1 mg/kg, route intravenous
# cond: in vivo
outcome_measure: clearance (mL/min/kg)
One number for each entry, in mL/min/kg.

Which clearance value is on record for `Cc1c(Oc2ccc(-n3cnnn3)cc2F)ncnc1N1C2CC3CC1CC(C2)N3C(=O)OC1(C)CC1` ?
1.74

====

# assay_info: Tmax in Sprague-Dawley rat at 30 mg/kg, po dosing of milled material in 0.5% methylcellulose
# Format: ADME, organism-based
# Design: dose 30 mg/kg, route oral
# cond: in vivo
outcome_measure: Tmax (h)
Answers are plain numbers, in h.

Which Tmax value is on record for `Cc1c(Oc2ccc(-n3cnnn3)cc2F)ncnc1N1C2CC3CC1CC(C2)N3C(=O)OC1(C)CC1` ?
6

====

# assay_info: AUC in Sprague-Dawley rat at 30 mg/kg, po administered as spray dried dispersion
# Format: ADME, organism-based
# Set-up: dose 30 mg/kg, route oral
# cond: plasma
outcome_measure: AUC
Write the numeric value and append its unit.

Which AUC value is on record for `Cc1c(Oc2ccc(-n3cnnn3)cc2F)ncnc1N1C2CC3CC1CC(C2)N3C(=O)OC1(C)CC1` ?
49100 ng·h/mL

====

# assay_info: Oral bioavailability in Beagle dog at 3 mg/kg administered as spray dried dispersion
# Format: ADME, organism-based, Canis lupus familiaris
# cond: in vivo
outcome_measure: bioavailability
Write the numeric value and append its unit.

Which bioavailability value is on record for `Cc1c(Oc2ccc(-n3cnnn3)cc2F)ncnc1N1C2CC3CC1CC(C2)N3C(=O)OC1(C)CC1` ?
60%

====

# assay_info: Half life in Beagle dog at 1 mg/kg, iv
# Type: ADME, organism-based, Canis lupus familiaris
# Set-up: dose 1 mg/kg, route intravenous
# cond: in vivo
outcome_measure: half-life (min)
Answers are plain numbers, in min.

Which half-life value is on record for `Cc1c(Oc2ccc(-n3cnnn3)cc2F)ncnc1N1C2CC3CC1CC(C2)N3C(=O)OC1(C)CC1` ?
1610
